- measured_target: HIV-1 92RW020 envelope protein (Env) on pseudovirus (HIV-1 isolate 92RW020)
- assay_text: cell-based or functional assay
observed_property: IC50 (µg/mL), pseudovirus neutralization
# unit: µg/mL | format: bare number

Input: Any idea what its IC50 (µg/mL), pseudovirus neutralization is? The binder is 1456_P20 (PG20) (antibody, human IgG1, kappa, V domains shown) VH: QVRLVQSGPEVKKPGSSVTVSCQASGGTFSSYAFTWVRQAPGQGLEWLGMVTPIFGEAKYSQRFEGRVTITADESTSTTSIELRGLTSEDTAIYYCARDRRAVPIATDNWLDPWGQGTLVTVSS VL: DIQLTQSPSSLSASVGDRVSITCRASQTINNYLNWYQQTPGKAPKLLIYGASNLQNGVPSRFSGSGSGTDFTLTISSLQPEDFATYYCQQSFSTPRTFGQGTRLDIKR
Output: 50

This collection of values is drawn from patent US20200024330A1.
